# Target Entity: PDE4B2 (Homo sapiens)
# Construct: expressed in transfected cells; host or cells: Flp-In-293 (Flpin-293-PDE4B2 [sic])
# Experimental Details: PDE4B2 cell experiment (cAMP, Eu-cAMP tracer / Ulight-anti-cAMP)
# Assay type: cell-based
# Condition Label: Flpin-293-PDE4B2 cells, 100 nM
Reported Endpoint: Cell Inhibition% @100 nM (%)

Example cases with answers are listed next.
# Compound, Unit Text, Cell Inhibition% @100 nM
data = [
    ("O=C(O)Cc1ccc(Nc2nc(N3CCc4cc(Cl)ccc4C3)nc3c2[S@+]([O-])CC3)cc1 [Compound 129]", "%", 72.19),
    ("NC(=O)c1ccc2c(c1)CCN(c1nc3c(c(NC4(CO)CCC4)n1)[S+]([O-])CC3)C2 (centres unmarked) [Compound 75]", "%", 51.36),
    ("[O-][S+]1CCc2nc(N3CC[C@H]4c5ccc(Cl)cc5OC[C@H]4C3)nc(NC3(CO)CCC3)c21 (some centres unmarked) [Compound 116]", "%", 73.36),
]

A = [O-][S+]1CCc2nc(N3CCc4nc(Br)sc4C3)nc(NC3(CO)CCC3)c21 (centres unmarked) [Compound 63]
B = Cn1cc2c(n1)CN(c1nc3c(c(NC4(CO)CCC4)n1)[S+]([O-])CC3)CC2 (centres unmarked) [Compound 30]
Lab note: record which item had the higher Cell Inhibition% @100 nM, A or B . State your choice using its label.
A

###

# Target Entity: PDE4B2 (Homo sapiens)
# Construct: expressed in transfected cells; host or cells: Flp-In-293 (Flpin-293-PDE4B2 [sic])
# Experimental Details: PDE4B2 cell experiment (cAMP, Eu-cAMP tracer / Ulight-anti-cAMP)
# Type: cell-based
# Condition Label: Flpin-293-PDE4B2 cells, 1 nM
Reported Endpoint: inhibition at 0.001 µM (%)

# Structure Notation, inhibition at 0.001 µM [%]
measured = [
    ("Cn1c(=O)oc2cc3c(cc21)CCN(c1nc2c(c(NC4(CO)CCC4)n1)[S@+]([O-])CC2)C3", 8.99),
    ("[O-][S@+]1CCc2nc(N3CC[C@@H]4c5ccncc5OC[C@H]4C3)nc(NC3(CO)CCC3)c21", 5.01),
    ("[O-][S@+]1CCc2nc(N3CC[C@H]4c5ncc(Cl)cc5OC[C@@H]4C3)nc(NC3(CO)CCC3)c21", -1.54),
    ("[O-][S@+]1CCc2nc(N3CCc4cc(N5CCCC5)cnc4C3)nc(NC3(CO)CCC3)c21", 36.5),
]

I = [O-][S@+]1CCc2nc(N3CCc4scc(Br)c4C3)nc(NC3(CO)CCC3)c21
II = O=c1[nH]c2cc3c(cc2o1)CN(c1nc2c(c(NC4(CO)CCC4)n1)[S@+]([O-])CC2)CC3
Between item I and item II , which reported inhibition at 0.001 µM is smaller? Write down the label of the entry you select.
I

###

# Target Entity: PDE4D2 (Homo sapiens, UniProt Q08499)
# Sequence (Q08499 303-809 limits assumed): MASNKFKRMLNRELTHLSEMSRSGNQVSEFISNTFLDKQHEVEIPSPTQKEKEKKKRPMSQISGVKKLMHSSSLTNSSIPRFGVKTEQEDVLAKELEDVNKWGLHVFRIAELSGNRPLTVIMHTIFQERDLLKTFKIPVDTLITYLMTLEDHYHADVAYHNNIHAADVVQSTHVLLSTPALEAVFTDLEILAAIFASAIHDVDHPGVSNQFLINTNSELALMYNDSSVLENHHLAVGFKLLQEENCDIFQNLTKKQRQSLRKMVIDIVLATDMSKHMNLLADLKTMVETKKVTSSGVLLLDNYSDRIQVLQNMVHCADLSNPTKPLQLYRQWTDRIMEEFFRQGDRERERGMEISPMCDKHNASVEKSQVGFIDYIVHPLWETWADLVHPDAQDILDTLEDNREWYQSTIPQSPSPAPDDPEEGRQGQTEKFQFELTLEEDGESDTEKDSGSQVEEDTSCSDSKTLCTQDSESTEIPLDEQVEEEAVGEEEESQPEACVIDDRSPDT
# Experimental Details: PDE4D2 enzyme experiment (AMP-glo, cAMP substrate)
# Format: biochemical
# Condition Label: read-out: PDE4D2 IC50 Binding
Reported Endpoint: IC50 (nM)

In the examples that follow, each entry is paired with its recorded IC50.
# Molecule, IC50 / nM
measured = [
    ("[O-][S+]1CCc2nc(N3CC[C@@H]4c5cc(Cl)ccc5OC[C@H]4C3)nc(NC3(CO)CCC3)c21 (some centres unmarked) [Compound 108]", 4.17),
    ("[O-][S+]1CCc2nc(N3CCc4cc(N5CCCC5)ccc4C3)nc(NC3(CO)CCC3)c21 (centres unmarked) [Compound 92]", 0.776),
    ("Cn1nccc1-c1ccc2c(c1)CCN(c1nc3c(c(NC4(CO)CCC4)n1)[S@+]([O-])CC3)C2 [Compound 76]", 0.089),
]

A = [O-][S@+]1CCc2nc(N3CCc4cc(Cl)ccc4C3)nc(NC3(CO)CCC3)c21 [Compound 18]
B = Cn1ccc(-c2ccc3c(c2)CCN(c2nc4c(c(NC5(CO)CCC5)n2)[S+]([O-])CC4)C3)n1 (centres unmarked) [Compound 77]
// compare: A vs B , metric IC50, want the smaller Pick one; state its label.
B
(B: 0.049 nM, A: 3.21 nM)

###

# Target Entity: PDE4B2 (Homo sapiens)
# Construct: expressed in transfected cells; host or cells: Flp-In-293 (Flpin-293-PDE4B2 [sic])
# Experimental Details: PDE4B2 enzyme experiment (AMP-glo, cAMP substrate)
# Assay type: biochemical
# Condition Label: read-out: PDE4B2 Enzyme Inhibition% @10 nM
Reported Endpoint: inhibition at 0.01 µM (%)

# Structure Notation, Reported Endpoint, Experimental Result
data = [
    ("[O-][S@+]1CCc2nc(N3Cc4nc5cc(Cl)ccn5c4C3)nc(NC3(CO)CCC3)c21", "inhibition at 0.01 µM", 45),
]

I = Cn1cnc2c1CN(c1nc3c(c(NC4(CO)CCC4)n1)[S@+]([O-])CC3)CC2
II = CN1CC=C(c2ccc3c(c2)CCN(c2nc4c(c(NC5(CO)CCC5)n2)[S@+]([O-])CC4)C3)C1
III = [O-][S@+]1CCc2nc(N3CCc4cc5c(cc4C3)OC(F)(F)O5)nc(NC3(CO)CCC3)c21
Sequence the entries by inhibition at 0.01 µM, beginning with the highest number. Form entry: labels listed in requested order.
III, I, II

###

# Target Entity: PDE4B2 (Homo sapiens, UniProt Q07343)
# Construct: expressed in transfected cells; host or cells: Flp-In-293 (Flpin-293-PDE4B2 [sic])
# Sequence (Q07343 1-564 isoform Q07343-2): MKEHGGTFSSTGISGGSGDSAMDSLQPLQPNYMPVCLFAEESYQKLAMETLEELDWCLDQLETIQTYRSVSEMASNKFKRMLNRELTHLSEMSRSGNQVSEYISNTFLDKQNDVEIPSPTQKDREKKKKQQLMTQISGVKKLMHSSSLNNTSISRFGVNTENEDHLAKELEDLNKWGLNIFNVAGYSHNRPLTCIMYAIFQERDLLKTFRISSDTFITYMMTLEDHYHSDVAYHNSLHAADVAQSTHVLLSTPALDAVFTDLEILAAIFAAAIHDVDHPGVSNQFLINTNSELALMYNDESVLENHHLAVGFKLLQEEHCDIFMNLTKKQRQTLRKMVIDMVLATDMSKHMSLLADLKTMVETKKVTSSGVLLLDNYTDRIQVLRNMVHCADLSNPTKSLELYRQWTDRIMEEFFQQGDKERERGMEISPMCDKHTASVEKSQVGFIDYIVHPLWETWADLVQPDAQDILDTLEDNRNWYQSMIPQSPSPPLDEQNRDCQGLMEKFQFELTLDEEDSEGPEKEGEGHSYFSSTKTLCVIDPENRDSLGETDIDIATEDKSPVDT
# Experimental Details: PDE4B2 cell experiment (cAMP, Eu-cAMP tracer / Ulight-anti-cAMP)
# Format: cell-based
# Condition Label: Flpin-293-PDE4B2 cells, 100 nM
Reported Endpoint: inhibition at 0.1 µM (%)

# example entries with known answers
# Molecule, Unit Text, inhibition at 0.1 µM
data = [
    ("[O-][S@+]1CCc2nc(N3CCc4cc(N5CCCC5)cnc4C3)nc(NC3(CO)CCC3)c21 [Compound 184]", "%", 100),
    ("[O-][S@+]1CCc2nc(N3CC[C@H]4c5ncc(Cl)cc5OC[C@@H]4C3)nc(NC3(CO)CCC3)c21 [Compound 114]", "%", 54.5),
    ("Cn1cnc2c1CN(c1nc3c(c(NC4(CO)CCC4)n1)[S@+]([O-])CC3)CC2 [Compound 38]", "%", 38.2),
]

A = [O-][S@+]1CCc2nc(N3Cc4nc5cc(Cl)ccn5c4C3)nc(NC3(CO)CCC3)c21 [Compound 8]
B = [O-][S@+]1CCc2nc(N3CC[C@@H]4c5ccncc5OC[C@H]4C3)nc(NC3(CO)CCC3)c21 [Compound 113]
Decide: A or B , by lowest recorded inhibition at 0.1 µM. State the label of the item chosen.
A

###

# Target Entity: PDE4B2 (Homo sapiens, UniProt Q07343)
# Construct: expressed in transfected cells; host or cells: Flp-In-293 (Flpin-293-PDE4B2 [sic])
# Experimental Details: PDE4B2 enzyme experiment (AMP-glo, cAMP substrate)
# Assay type: biochemical
# Condition Label: read-out: PDE4B2 Enzyme Inhibition% @100 nM
Reported Endpoint: inhibition at 0.1 µM (%)

# Compound, inhibition at 0.1 µM [%]
measured = [
    ("Cn1c(=O)c2c(c3ccc(Cl)cc31)CCN(c1nc3c(c(NC4(CO)CCC4)n1)[S@+]([O-])CC3)C2 [Compound 45]", 100),
    ("[O-][S@+]1CCc2nc(N3Cc4nc5cc(Cl)ccn5c4C3)nc(NC3(CO)CCC3)c21 [Compound 8]", 94.1),
    ("N#Cc1ccc2c(c1)CN(c1nc3c(c(NC4(CO)CCC4)n1)[S@+]([O-])CC3)C2 [Compound 60]", 99.3),
    ("[O-][S@+]1CCc2nc(N3CCc4cc5c(cc4C3)OC(F)(F)O5)nc(NC3(CO)CCC3)c21 [Compound 48]", 101),
]

###

# Target Entity: PDE4B2 (Homo sapiens, UniProt Q07343)
# Construct: expressed in transfected cells; host or cells: Flp-In-293 (Flpin-293-PDE4B2 [sic])
# Experimental Details: PDE4B2 cell experiment (cAMP, Eu-cAMP tracer / Ulight-anti-cAMP)
# Assay type: cell-based
# Condition Label: Flpin-293-PDE4B2 cells, Foskolin
Reported Endpoint: IC50 (nM)

# Compound, Reported Endpoint, Experimental Result
measured = [
    ("COc1ccc2c(c1)CCN(c1nc3c(c(NC4(CO)CCC4)n1)[S+]([O-])CC3)CC2 (centres unmarked)", "IC50", 6.28),
]

P = [O-][S+]1CCc2nc(N3CCc4cc(Cl)c(Cl)cc4C3)nc(NC3(CO)CCC3)c21 (centres unmarked)
Q = [O-][S+]1CCc2nc(N3CCc4cc(Br)ccc4C3)nc(NC3(CO)CCC3)c21 (centres unmarked)
R = Cn1c(=O)c2c(c3ccc(Cl)cc31)CCN(c1nc3c(c(NC4(CO)CCC4)n1)[S@+]([O-])CC3)C2
S = [O-][S+]1CCc2nc(N3CCc4c(nn5cccc(Cl)c45)C3)nc(NC3(CO)CCC3)c21 (centres unmarked)
Hey, can you sort those compounds up there by IC50, smallest first? Answer by listing the labels in the requested order.
R, Q, P, S
(R: 3.99 nM, Q: 10.4 nM, P: 19.7 nM, S: 73.8 nM)

a = COc1nc2cc(Cl)ccc2c2c1CN(c1nc3c(c(NC4(CO)CCC4)n1)[S+]([O-])CC3)CC2 (centres unmarked)
b = [O-][S+]1CCc2nc(N3CCc4cc5c(cc4C3)OCO5)nc(NC3(CO)CCC3)c21 (centres unmarked)
Given a and b , report the one with the higher recorded IC50. Record your answer as the label of the chosen record.
b
(b: 46.1 nM, a: 13.2 nM)
